Catalogue of Percent Effect readings, one per entry.
- Tested on: Wolbachia pipientis
- measurement-notes: Anti-Wolbachia Cell-Based Screen
- Format: functional
- Design: scale not given: in the data most compounds retested in dose-response had high values
- study-conditions: 5 µM
The campaign covered roughly 48,000 compounds. About 13,000 (27%) showed an effect of 50% or more. This is one part of the list.
measured-quantity: Percent Effect (%)

INSERT INTO measurements (compound, units_text, test_value) VALUES
  ('CNS(=O)(=O)c1cccc(C(C)NCc2ccccc2OC)c1 (centres undefined)', '%', -4.064),
  ('CCc1ccc(CN2C[C@H](OCC(=O)N(C)C)[C@H]3COC[C@H]32)o1.O=C(O)C(F)(F)F', '%', 117.7),
  ('CC(NCc1ccccc1Cl)c1ccc2[nH]c(=O)[nH]c2c1 (centres undefined)', '%', 97.6),
  ('CN(C)CCO[C@H]1CN(Cc2ccoc2)[C@@H]2COC[C@H]12.O=C(O)C(F)(F)F.O=C(O)C(F)(F)F', '%', -9.926),
  ('CN(C)C(=O)CO[C@H]1CN(Cc2ccc3c(c2)OCO3)[C@@H]2COC[C@H]12.O=C(O)C(F)(F)F', '%', 108),
  ('CCOCC(=O)N1C[C@H]2CC[C@@H]1CN(C(=O)c1ccncc1)C2', '%', -0.6982),
  ('CN(C)C(=O)CO[C@H]1CN(Cc2ccsc2)[C@@H]2COC[C@H]12.O=C(O)C(F)(F)F', '%', 92.71),
  ('COc1ccc(CCNC(C)c2ccc3[nH]c(=O)[nH]c3c2)cc1OC (centres undefined)', '%', 106.6),
  ('NC(=O)CN1CCC(NC(=O)N2CCCC2c2ccsc2)CC1 (centres undefined)', '%', -19.01);

These entries and their values trace back to ChEMBL document CHEMBL3988442.
